Parameter 'readout' = IC50; parameter 'system' = BCAT1 enzyme (Homo sapiens).
Sequence (P54687 whole entry): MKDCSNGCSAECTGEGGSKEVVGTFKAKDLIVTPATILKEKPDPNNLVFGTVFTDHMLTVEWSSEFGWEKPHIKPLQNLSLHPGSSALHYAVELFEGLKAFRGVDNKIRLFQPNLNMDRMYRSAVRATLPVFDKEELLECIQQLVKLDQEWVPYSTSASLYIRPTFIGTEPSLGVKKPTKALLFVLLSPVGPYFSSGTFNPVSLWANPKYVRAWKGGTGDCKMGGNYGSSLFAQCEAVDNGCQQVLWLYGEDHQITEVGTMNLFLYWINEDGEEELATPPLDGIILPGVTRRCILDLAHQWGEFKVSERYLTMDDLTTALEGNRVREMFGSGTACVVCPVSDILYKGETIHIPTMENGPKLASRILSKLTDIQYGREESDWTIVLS
Give bare numbers, in mM.

NC[C@]1(CC(=O)O)C[C@H]2CCC[C@@H]1C2 (relative stereo) = 4.2
NCC1(CC(=O)O)CC2CCC1CC2 (stereo not shown) = 1.71
NC[C@@]1(CC(=O)O)C[C@H]2CCC[C@@H]1C2 (relative stereo) = 1.54

Give one value of IC50 per listed compound.
1. NC[C@@]1(CC(=O)O)C[C@H]2CC=C[C@@H]1C2 (relative stereo)
2. NC[C@]1(CC(=O)O)C[C@H]2CC[C@@H]1C2
3. NC[C@@]1(CC(=O)O)C[C@H]2CC[C@@H]1C2 (relative stereo)
4. NC[C@]1(CC(=O)O)C[C@H]2CCCC1CC2 (relative stereo)
5. NC[C@@]1(CC(=O)O)C[C@H]2C=C[C@@H]1C2 (relative stereo)
6. NCC1(CC(=O)O)CCCCC1 [gabapentin, reference compound]
7. NC[C@]1(CC(=O)O)C[C@H]2C=C[C@@H]1C2 (relative stereo)

Response line:
0.78
4.86
2.04
14.5
2.04
5.07
3.96

Source listed as paper PMC11858294.
